- Test target: HIV-1 protease (Human immunodeficiency virus type 1 group M subtype B, UniProt P04585)
- Test method notes: biochemical
- Measurement conditions: read-out: HIV-1 Protease % Inhib, dose 11.000 uM
Hi there, I'd appreciate the recorded inhibition at 11 µM for every entry that follows.
Numbers only, in %.

CC(C)N=C(Nc1cccc(C(c2c(O)c3c(oc2=O)CCCCCC3)C2CC2)c1)NC(C)C (stereo not drawn): 80.7
CCC(c1ccccc1)c1c(O)c2c(oc1=O)C(C)CCCCC2 (stereo not drawn): 96.7

Attention now shifts to the item below.
inhibition at 11 µM lookup needed for CCC(c1cccc(NS(=O)(=O)CCNC(=O)OC(C)(C)C)c1)c1c(O)c2ccccc2oc1=O (stereo not drawn) , thanks. 71.8

* * *

- Test target: UniProt:P04585
- Test method notes: biochemical
- Measurement conditions: read-out: HIV-1 Protease % Inhib, dose 0.123 uM
Class boundaries, taken from values of inhibition at 0.123 µM, are as follows: band 1 (below 60%), band 2 (60% to below 80%), band 3 (80% or more)

Form field 'band' for O=c1oc2c(c(O)c1C(c1cccc(S(=O)(=O)Nc3ccccc3)c1)C1CC1)CCCCCC2 (centres unmarked) [Example 400] band 1

Would you mind sorting O=c1oc2c(c(O)c1C(c1cccc(NS(=O)(=O)c3cccc(N4CCCS4(=O)=O)c3)c1)C1CC1)CCCCCC2 (centres unmarked) [Example 357] into the appropriate category? band 3

# bin label for CC(C)(C)OC(=O)NCCC(=O)Nc1cccc(C(c2c(O)c3c(oc2=O)CCCCC3)C2CC2)c1 (centres unmarked) [Example 214] band 1

Given O=c1oc2c(c(O)c1C(c1cccc(NS(=O)(=O)c3ccc(O)cc3)c1)C1CC1)CCCCCC2 (centres unmarked) [Example 407] , name the class its inhibition at 0.123 µM places it in. band 1

Band of O=c1oc2c(c(O)c1C(c1cccc(NS(=O)(=O)c3cccc(C(F)(F)F)c3)c1)C1CC1)CCCCCC2 (centres unmarked) [Example 280] ? band 2

State the band of O=c1oc2c(c(O)c1C(c1cccc(NS(=O)(=O)CCCI)c1)C1CC1)CCCCCC2 (centres unmarked) [Example 365C] band 2

In plain terms, what class is O=c1oc2c(c(O)c1[C@H](c1cccc(NS(=O)(=O)c3ccc(F)cc3)c1)C1CC1)CCCCCC2 [Example 252] ? band 3

Please report the category associated with CC(C)C(c1cccc(NS(=O)(=O)c2cn(C)cn2)c1)c1c(O)c2c(oc1=O)CCCCCC2 (centres unmarked) [Example 374] , nothing else. band 3

* * *

- Test target: HIV-1 protease (Human immunodeficiency virus type 1 group M subtype B, UniProt P04585)
- Test method notes: biochemical
- Measurement conditions: read-out: HIV-1 Protease % Inhib, dose 0.370 uM
Result type: inhibition at 0.37 µM (%)
Answers are plain numbers, in %.

Solved entries (count: 5):
O=c1oc2c(c(O)c1C(c1cccc(NS(=O)(=O)c3ccc(O)cc3)c1)C1CC1)CCCCCC2 (stereo not drawn): 74.7
O=c1oc2c(c(O)c1C(c1cccc(NS(=O)(=O)c3ccc(Cl)c(Cl)c3)c1)C1CC1)CCCCCC2 (stereo not drawn): 95.7
CC(C)C(c1cccc(NS(=O)(=O)c2ccc(Cl)cc2)c1)c1c(O)c2c(oc1=O)CCCCCC2 (stereo not drawn): 68.9
O=c1oc2c(c(O)c1C(c1cccc(NS(=O)(=O)c3ccc(Cl)s3)c1)C1CC1)CCCCCC2 (stereo not drawn): 91.2
CCC(O)C1CCCCCc2c1oc(=O)c(C(c1ccccc1)C1CC1)c2O (stereo not drawn): 97.7

Okay, here is my list. What is inhibition at 0.37 µM for each of these?
1. CCCC(c1cccc(NS(=O)(=O)c2cn(C)cn2)c1)c1c(O)c2c(oc1=O)CCCCCC2 (stereo not drawn)
2. CC(C)C(c1cccc(NS(=O)(=O)c2ccc(F)cc2)c1)c1c(O)c2c(oc1=O)CCCCCC2 (stereo not drawn)
3. O=c1oc2c(c(O)c1C(c1ccccc1)C1CC1)CCCCC2Cc1ccccc1 (stereo not drawn)

109
87.5
22.3

Quick request: inhibition at 0.37 µM for each listed item, please.
1. O=c1oc2c(c(O)c1[C@H](c1cccc(NS(=O)(=O)c3cccc4cccnc34)c1)C1CC1)CCCCCC2
2. CCC(c1cccc(NS(=O)(=O)c2ccc(C#N)cc2)c1)c1c(O)c2c(oc1=O)CCCCCC2 (stereo not drawn)
3. CCCCS(=O)(=O)Nc1cccc(C(c2c(O)c3c(oc2=O)CCCCCC3)C2CC2)c1 (stereo not drawn)
4. O=c1oc2c(c(O)c1[C@H](c1cccc(NS(=O)(=O)c3ccc(F)cc3)c1)C1CC1)CCCCCC2

91.3
94.1
92.6
108

List reported inhibition at 0.37 µM for each of these compounds:
1. CN(C)c1ccc(N=Nc2ccc(S(=O)(=O)Nc3cccc(C(c4c(O)c5c(oc4=O)CCCCCC5)C4CC4)c3)cc2)cc1 (stereo not drawn)
2. CCC(c1ccc(C)s1)c1c(O)c2c(oc1=O)CCCCCC2 (stereo not drawn)
3. O=c1oc2c(c(O)c1C(c1cccc(NS(=O)(=O)c3ccc(C(F)(F)F)cc3)c1)C1CC1)CCCCCC2 (stereo not drawn)
4. CC(C)CC(c1cccc(NS(=O)(=O)c2cn(C)cn2)c1)c1c(O)c2c(oc1=O)CCCCCC2 (stereo not drawn)
5. O=c1oc2c(c(O)c1C(c1cccc(NS(=O)(=O)c3ccccc3F)c1)C1CC1)CCCCCC2 (stereo not drawn)
6. O=c1oc2c(c(O)c1C(c1cccc(NS(=O)(=O)c3ccc(OC(F)(F)F)cc3)c1)C1CC1)CCCCCC2 (stereo not drawn)

[67.5, 24.1, 83.9, 92.8, 93.5, 83.6]

These data points were gathered from patent US5686486A.
